Target: Cbl-b (Homo sapiens (Human))
Sequence (Q13191 36-427): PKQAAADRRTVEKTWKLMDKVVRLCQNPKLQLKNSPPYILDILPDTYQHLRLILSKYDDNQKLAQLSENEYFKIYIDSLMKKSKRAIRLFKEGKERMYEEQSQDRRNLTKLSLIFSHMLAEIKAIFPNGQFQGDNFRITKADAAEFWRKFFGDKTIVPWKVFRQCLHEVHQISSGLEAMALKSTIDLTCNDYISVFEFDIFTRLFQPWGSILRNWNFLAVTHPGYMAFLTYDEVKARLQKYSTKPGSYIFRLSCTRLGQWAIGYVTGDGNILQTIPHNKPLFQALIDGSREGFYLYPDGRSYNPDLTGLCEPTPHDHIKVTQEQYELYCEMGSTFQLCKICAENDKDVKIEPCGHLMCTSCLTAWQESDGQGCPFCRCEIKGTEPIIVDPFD
Experiment: Cbl-b displacement assay (Cbl-b inhibition assay), TR-FRET probe displacement, Biological Example 1
Type: binding
Conditions: 0.125 nM Cbl-b final concentration (Low); read-out: Cbl-b activity IC50 (Low)
For each record, write down the corresponding IC50.

compound: CCNc1cc(C2(Cc3nncn3C)COC2)cc(N2Cc3c(cc(CN4CCC[C@H](C)C4)cc3C(F)(F)F)C2=O)n1
IC50: < 1 nM

compound: C[C@H]1CCCN([C@@H](C)c2cc3c(c(C4CC4)n2)CN(c2cccc(C4(Cc5nncn5C)COC4)c2)C3=O)C1
IC50: < 1 nM

compound: CCNc1cc(C2(Cc3nncn3C)COC2)cc(N2Cc3c(cc(CN4CCC(F)(F)[C@H](C)C4)nc3C3CC3)C2=O)n1
IC50: 1 to 5 nM

State the recorded IC50 for every item in the following list.
1. Cn1cnnc1CC1(c2cccc(N3Cc4c(cc(CN5CCCC(C)(F)C5)cc4C(F)(F)F)C3=O)c2)COC1 (stereo in doubt) [Compound 6]
2. CCOc1cc(C2(Cc3nncn3C)COC2)cc(N2Cc3c(cc(CN4CCC[C@H](C)C4)cc3C(F)(F)F)C2=O)n1
3. C[C@H]1CCCN([C@H](C)c2cc3c(c(C4CC4)n2)CN(c2cccc(C4(Cc5nncn5C)COC4)c2)C3=O)C1
4. Cn1cnnc1CC1(c2cccc(N3Cc4c(cc(CN5CCC[C@H](C#N)C5)cc4C(F)(F)F)C3=O)c2)COC1

["5.1 to 100 nM", "< 1 nM", "1 to 5 nM", "1 to 5 nM"]

Go through the items and report each one's IC50.
1. C[C@H]1CCCN(Cc2cc3c(c(C(F)(F)F)c2)CN(c2cccc(C4(Cc5nncn5C(F)F)COC4)c2)C3=O)C1
2. C[C@H]1C[C@@H](CO)CN(Cc2cc3c(c(C(F)(F)F)c2)CN(c2cccc(C4(Cc5nncn5C)COC4)c2)C3=O)C1 (relative stereo)
3. Cn1cnnc1CC1(c2cccc(N3Cc4c(cc(CN5CC(C(F)(F)F)C[C@H](C(F)(F)F)C5)cc4C(F)(F)F)C3=O)c2)COC1 (stereo partly shown)
4. C[C@H]1CCCN(Cc2cc3c(c(C4CC4)n2)CN(c2cccc(C4(Cc5nncn5C)COC4)c2)C3=O)C1
5. C[C@H]1CCCN(Cc2cc3c(c(C(F)(F)F)c2)CN(c2cc(C4(Cc5nncn5C)COC4)cc(Cl)n2)C3=O)C1
6. C[C@H]1CCCN(Cc2cc3c(c(C(F)(F)F)c2)CN(c2cc(C4(Cc5nncn5C)COC4)ccn2)C3=O)C1

1. < 1 nM
2. < 1 nM
3. 5.1 to 100 nM
4. 1 to 5 nM
5. 5.1 to 100 nM
6. 1 to 5 nM

###

Give fold induction at 3 µM for every item shown.
System: primary human total T-cells
Experiment: Primary human total T-cell activation: CD25 surface staining, Biological Example 9
Assay type: cell-based
Details: anti-CD3 alone, inhibitor 3 μM, 48 hours, fold change over baseline, Table 9-1

Some solved cases for reference:
compound: CCNc1cc(C2(Cc3nncn3C)COC2)cc(N2Cc3c(cc(CN4CCC[C@H](C)C4)cc3C(F)(F)F)C2=O)n1 [Compound 44]
reported-endpoint: fold induction at 3 µM
result: 1.05 to 1.14

compound: C[C@@H](c1cc2c(c(C(F)(F)F)c1)CN(c1cccc(C3(Cc4nncn4C)COC3)c1)C2=O)N1CC[C@H](F)C1 [Compound 55]
reported-endpoint: fold induction at 3 µM
result: > 1.14

compound: C[C@@H]1CN(Cc2cc3c(c(C(F)(F)F)c2)CN(c2cccc(C4(Cc5nncn5C)COC4)c2)C3=O)CCC1(F)F [Compound 8]
reported-endpoint: fold induction at 3 µM
result: > 1.14

compound: CCOc1cc(C2(Cc3nncn3C)COC2)cc(N2Cc3c(cc(CN4CCC(F)(F)[C@H](C)C4)cc3C(F)(F)F)C2=O)n1 [Compound 28]
reported-endpoint: fold induction at 3 µM
result: < 1.04

compound: C[C@@H](c1cc2c(c(C(F)(F)F)c1)CN(c1cccc(C3(Cc4nncn4C)COC3)c1)C2=O)N1CCC(F)CC1 [Compound 61]
reported-endpoint: fold induction at 3 µM
result: > 1.14

# map each compound to its fold induction at 3 µM
1. C[C@@H](c1cc2c(c(C(F)(F)F)c1)CN(c1cccc(C3([C@@H](F)c4nncn4C)COC3)c1)C2=O)N1CCC2(CC2)C1 [Compound 60]
2. Cc1cc(C(=O)Nc2cccc(C3(Cc4nncn4C)COC3)c2)nc(C2CC2)n1 [Compound 53]

> 1.14
> 1.14
